test_details: Solubility measurements by gravimetric method in solvents at 23° C. and 50° C.
Type: physicochemical
condition_notes: IPA:DMSO:water (70:20:10), 50 °C, organic solvent or mixture, thermodynamic from solid, IPA:DMSO:water (70:20:10), 50° C.; read-out: Solubility
observation_type: solubility at 2 days (µg/mL)
# number only, unit µg/mL dropped from output

// returns reported solubility at 2 days for input O=C(c1ccc(NS(=O)(=O)c2cccc3cccnc23)cc1)N1CCN(CC2CC2)CC1 [Form A, hemisulfate sesquihydrate]
8000

---

test_details: Solubility measurements by gravimetric method in solvents at 23° C. and 50° C.
Format: physicochemical
condition_notes: MeOAc:MeOH (1:1), 23 °C, organic solvent or mixture, thermodynamic from solid, MeOAc:MeOH (1:1), 23° C.; read-out: Solubility
observation_type: solubility at 2 days

// returns reported solubility at 2 days for input O=C(c1ccc(NS(=O)(=O)c2cccc3cccnc23)cc1)N1CCN(CC2CC2)CC1 [Form A, hemisulfate sesquihydrate]
208 mg/mL
